target.or.system: Glutamate receptor ionotropic, AMPA (Rattus norvegicus, UniProt P19490+P19491+P19492+P19493)
assay.procedure: Compound was evaluated for the inhibition of binding of [3H]AMPA to the AMPA receptor
quantity.measured: pIC50
Expect pIC50 as a plain number equal to -log10 of the molar concentration.

Need pIC50, item `N[C@@H](Cc1c(O)noc1-c1ccccc1)C(=O)O`
5.22

Requested field: pIC50. Item: NC(Cc1c(O)noc1-c1ccccc1)C(=O)O (racemic)
4.46

====

target.or.system: Glutamate receptor ionotropic, kainate
assay.procedure: Compound was evaluated for the inhibition of binding of [3H]-Kainic acid to kianic acid receptor
pIC50: −log10 of the molar value.
Please provide measured pIC50 for the entries that follow.

Please report the recorded pIC50 for `N[C@@H](Cc1c(O)noc1-c1ccccc1)C(=O)O` .
< 4.00

Reported pIC50 for NC(Cc1c(O)noc1-c1ccccc1)C(=O)O (racemic) : what is it?
< 4.00

Item under review: `N[C@H](Cc1c(O)noc1-c1ccccc1)C(=O)O` . Reported pIC50?
< 4.00

====

target.or.system: Glutamate receptor ionotropic, AMPA (Rattus norvegicus, UniProt P19490+P19491+P19492+P19493)
assay.procedure: Compound was evaluated for the antagonist activity on AMPA receptor in rat cortical wedge preparation
quantity.measured: Ki (µM)
Entry rule: numbers only, all in µM.

Look at this compound and give its reported Ki. `N[C@H](Cc1c(O)noc1-c1ccccc1)C(=O)O`
286

====

target.or.system: Glutamate receptor ionotropic, AMPA (Rattus norvegicus, UniProt P19490+P19491+P19492+P19493)
assay.procedure: Compound was evaluated for the agonist activity on AMPA receptor in rat cortical wedge preparation
Provide the reported pEC50 of each item.
Scale: negative log10 of molar concentration, which is what pEC50 denotes.

I have this molecule here, NC(Cc1c(O)noc1-c1ccccc1)C(=O)O (racemic) , and I need its recorded pEC50.
3.41

Entry `N[C@@H](Cc1c(O)noc1-c1ccccc1)C(=O)O` has what pEC50?
3.64

====

target.or.system: Glutamate NMDA receptor
assay.procedure: Compound was evaluated for the inhibition of binding of [3H]- CPP to NMDA receptor
Format: protein-complex assay
pIC50: −log10 of the molar value.
quantity.measured: pIC50

Recorded pIC50 for `N[C@@H](Cc1c(O)noc1-c1ccccc1)C(=O)O` , please?
< 4.00

Given the entry NC(Cc1c(O)noc1-c1ccccc1)C(=O)O (racemic) , report its measured pIC50.
< 4.00

What value of pIC50 has been recorded for this entry: `C=C(C)[C@H]1CN[C@H](C(=O)O)[C@H]1CC(=O)O`
< 4.00

Field request: pIC50 | item: `N[C@H](Cc1c(O)noc1-c1ccccc1)C(=O)O`
< 4.00
